Target: T1, Recombinant human CD123 SP1 ECD-His tag protein (human, UniProt P26951 20-305)
T1 construct: bought from R&D Systems (#301-R3/CF); biotinylated for some assays; also called rhCD123 SP1; huCD123 ECD SP1
T1 sequence: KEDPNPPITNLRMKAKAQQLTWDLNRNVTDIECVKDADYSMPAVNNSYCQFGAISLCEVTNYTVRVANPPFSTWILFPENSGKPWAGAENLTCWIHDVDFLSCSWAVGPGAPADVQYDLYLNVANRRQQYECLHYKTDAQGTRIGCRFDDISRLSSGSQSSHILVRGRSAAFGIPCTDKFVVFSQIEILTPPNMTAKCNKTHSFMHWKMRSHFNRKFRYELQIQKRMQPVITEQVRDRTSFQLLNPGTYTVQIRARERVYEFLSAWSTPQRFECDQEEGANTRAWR
Test: SPR Biacore 3000, captured mAb
observation_type: kon (M⁻¹ s⁻¹)
Numbers only, in M⁻¹ s⁻¹.

binder: I3RB2 (antibody, IgG1, V domains shown, IgG1; also called I3RB02; 13RB2) VH: EVQLLESGGGLVQPGGSLRLSCAASGFTFSGYWMHWVRQAPGKGLEWVSAIRSDGSSKYYADSVKGRFTISRDNSKNTLYLQMNSLRAEDTAVYYCAKDGVIEDTFDYWGQGTLVTVSS VL: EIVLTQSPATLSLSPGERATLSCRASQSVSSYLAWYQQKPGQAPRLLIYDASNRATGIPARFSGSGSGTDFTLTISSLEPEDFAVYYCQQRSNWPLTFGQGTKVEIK
kon (M⁻¹ s⁻¹): 481000

binder: I3RB18 (antibody, IgG1, V domains shown, IgG1; also called 13RB18; mAb I3RB18) VH: EVQLVQSGAEVKKPGESLKISCKGSGYSFTSYWISWVRQMPGKGLEWMGIIDPSDSDTRYSPSFQGQVTISADKSISTAYLQWSSLKASDTAMYYCARGDGSTDLDYWGQGTLVTVSS VL: EIVLTQSPGTLSLSPGERATLSCRASQSVSSSYLAWYQQKPGQAPRLLIYGASSRATGIPDRFSGSGSGTDFTLTISRLEPEDFAVYYCQQDYGFPWTFGQGTKVEIK
kon (M⁻¹ s⁻¹): 688000

binder: I3RB35 (antibody, IgG1, V domains shown, IgG1) VH: QVQLVQSGAEVKKPGSSVKVSCKASGGTFSSYAISWVRQAPGQGLEWMGGIIPIFGTANYAQKFQGRVTITADESTSTAYMELSSLRSEDTAVYYCARHLFWDAGPLDYWGQGTLVTVSS VL: DIQMTQSPSSLSASVGDRVTITCRASQSISSYLNWYQQKPGKAPKLLIYAASSLQSGVPSRFSGSGSGTDFTLTISSLQPEDFATYYCQQYFSPPYTFGQGTKVEIK
kon (M⁻¹ s⁻¹): 540000

Kindly review the next binder as well.
// returns reported kon for input I3RB37 (antibody, IgG1, V domains shown, IgG1) VH: QVQLVQSGAEVKKPGSSVKVSCKASGGTFSSYAISWVRQAPGQGLEWMGGIIPIFGTANYAQKFQGRVTITADESTSTAYMELSSLRSEDTAVYYCARDKTDFPSRLDYWGQGTLVTVSS VL: DIQMTQSPSSLSASVGDRVTITCRASQSIATWLNWYQQKPGKAPKLLIYAASSLQSGVPSRFSGSGSGTDFTLTISSLQPEDFATYYCQQYITFPLTFGQGTKVEIK 545000

Value source: patent US20160068605A1
